Where do these numbers come from? They come from patent US11214803B2.

- Tested on: Yap1 mRNA
- test: Antisense inhibition of human Yap1 in A-431 cells by cEt gapmers, single dose (Example 2, RTS4814)
- Assay type: cell-based
- measurementContext: Table 5; A-431 cells, 5,000 cells per well, free uptake, 2,000 nM modified oligonucleotide, approx. 48 hours; RTS4814; normalized to RIBOGREEN; Yap1 mRNA relative to untreated control cells
Strand notation (5' to 3'): a small letter for the sugar, then the base; units joined by * are phosphorothioate-linked, units joined directly phosphodiester-linked; [ ] holds rarer units or linkages, { } end groups; capitals alone tell only the bases. k = constrained ethyl (cEt); [5mC] = 5-methylcytosine; d = 2'-deoxy (DNA)
Use 90 % UTC as the dividing line for YAP1 (% UTC), with the line itself on the t side and lower values as f.

Problem: Is it the case that 716347 (kT*kG*k[5mC]*d[5mC]*dT*dT*dT*d[5mC]*d[5mC]*d[5mC]*d[5mC]*dG*d[5mC]*k[5mC]*kT*k[5mC]; antisense) [Compound 716347] has YAP1 (% UTC) reaching or exceeding 90 % UTC?
Result: f

Problem: Thanks! And 716350 (k[5mC]*kT*k[5mC]*dG*dG*dA*d[5mC]*d[5mC]*dT*dG*d[5mC]*dG*dG*k[5mC]*kG*k[5mC]; antisense) [Compound 716350] ?
Result: t

Problem: Now consider 716488 (k[5mC]*kA*kT*dT*dA*dT*dT*dA*d[5mC]*dT*d[5mC]*d[5mC]*dT*kG*kT*kA; antisense) [Compound 716488] .
Result: f

Problem: // repeat for 716467 (k[5mC]*k[5mC]*kG*dT*dA*dT*dG*d[5mC]*d[5mC]*d[5mC]*dA*dG*dA*kG*kG*kG; antisense) [Compound 716467] and report
Result: t

Problem: Note, next up: 716509 (antisense kT*kA*kT*dA*d[5mC]*d[5mC]*d[5mC]*dA*dA*dT*dT*dT*dT*kG*k[5mC]*kA) [Compound 716509]
Result: f

* * *

Reported % UTC 4000 nM values are given for each entry in this list.
- Test system: Yap1 mRNA
- test: Dose-dependent inhibition of human Yap1 in A-431 cells (Example 6, 5,000 cells per well, RTS4814)
- Assay type: cell-based
- measurementContext: Table 54; A-431 cells, free uptake, 4000 nM, approximately 48 hours, RTS4814
Strand notation (5' to 3'): a small letter for the sugar, then the base; units joined by * are phosphorothioate-linked, units joined directly phosphodiester-linked; [ ] holds rarer units or linkages, { } end groups; capitals alone tell only the bases. k = constrained ethyl (cEt); [5mC] = 5-methylcytosine; d = 2'-deoxy (DNA)
# value in % UTC; strip the unit string

>>> df
                                  substance  measurement
0  715435 (kG*kG*kT*d[5mC]*dT*dT*dG*dT*dT*d[5mC]*dT*dT*dA*kT*kG*kG; antisense) [compound 715435]           48

Problem: Look up % UTC 4000 nM: 715414 (kA*kA*k[5mC]*dA*dT*dG*d[5mC]*dT*dG*dT*dG*dG*dA*kG*kT*k[5mC]; antisense) [compound 715414]
Result: 67

Problem: Okay, and 716469 (antisense kG*kT*kT*dT*dG*d[5mC]*dT*d[5mC]*d[5mC]*dT*dT*dT*d[5mC]*k[5mC]*kA*kA) [compound 716469] ?
Result: 39
